System: MS2 coat protein
assay name: apparent KD of MS2 coat protein; designed switch direction (-1 OFF switch, 1 ON switch): -1; higher = weaker reporter binding
run conditions: input ligand: microRNA oligo, concentration not stated
# binarize apparent KD of MS2 coat protein: threshold 60 nM inclusive, high side Condition met, low side Condition not met

{"polymer sequence": "AAAUAACAAGCAAUAAACCACAUGAGGAUCACCCAUGUAAAGGGUGAAUCGUCCACCCAAAAAAAAAAAAAAAAAUA [Mat - Sensor v2 - Eli mod - 147] (Eterna round: R96, puzzle: Sensor v2, turn-off variant)", "assigned label": "Condition met"}
{"polymer sequence": "AGUACUGACACGAAAGUGUUAGUACAAUAAGCUUGUGAAACAUGAGGAUCACCCAUGUCCUCAUAAGCUCGUCUUAU [salish99_TOv2_r3_017] (Eterna round: R96, puzzle: Sensor v3, turn-off variant 2)", "assigned label": "Condition met"}

*Q* Determine whether measured apparent KD of MS2 coat protein meets or exceeds 60 nM for AAGAAGAUCGGAGGAUAUGGAGCUGAAACGGCGCUAGAAGGCCGUCUAGUGUAACAUGAGGAUCACCCAUGUAGGGACCUCUAA [EX ng 1 4.2] (Eterna round: R96, puzzle: Exclusion NG 1)
*A* Condition met
